Tested on: U251 CNS
Experiment: NCI tumour cell line growth inhibition, 48 h; in the data active means GI50 below about 0.43 µM; inactive means the rest
Classes used: label 1 for active, label 0 for inactive

- compound: "CN(C)c1ccc(N=C(C#N)c2nc(N)nc(N3CCOCC3)n2)cc1"
  assigned.class: "label 0"
- compound: "O=[N+]([O-])c1ccc([I+]c2ccccc2)cc1"
  assigned.class: "label 0"
- compound: "CC1OC(OC2C(OC3CCC4(C)C(CCC5(C)C4CC=C4C6CC(C)(C)CCC6(CO)C(O)CC45C)C3(C)C)OC(C(=O)O)C(OC3OC(COC4OC(CO)C(O)C(O)C4O)C(O)C(O)C3O)C2O)C(O)C(O)C1O (centres undefined)"
  assigned.class: "label 0"
- compound: "O=C(Nc1ccc(-n2cc(-c3ccncc3)c(-c3ccc(O)c(Cl)c3)n2)cc1)c1ccc(Cl)c(Cl)c1"
  assigned.class: "label 0"
- compound: "OCCC#Cc1ccccc1C#Cc1ccccc1"
  assigned.class: "label 0"
- compound: "CC(=O)[CH-]C(=O)c1ccccc1.CC(=O)[CH-]C(=O)c1ccccc1.[O-]Cc1cccs1.[O-]Cc1cccs1.[Ti+4]"
  assigned.class: "label 0"
- compound: "C#CCSc1nnnn1-c1ccc(Br)c(C)c1"
  assigned.class: "label 0"
- compound: "C[CH2][Sn]([CH2]C)([O]C(=O)c1cc(OC)c(OC)c(OC)c1)[O][Sn]([CH2]C)([CH2]C)[O]C(=O)c1cc(OC)c(OC)c(OC)c1"
  assigned.class: "label 0"
- compound: "Cn1cc(-c2csc(-c3cn(C)c4ncccc34)n2)c2ccccc21"
  assigned.class: "label 1"

###

Test system: SR leukemia
Test: NCI tumour cell line growth inhibition, 48 h; in the data active means GI50 below about 0.43 µM; inactive means the rest
Classes used: active, inactive

- chem.smiles: "C[CH2][Sn]([CH2]C)([O]C(=O)c1cc(OC)c(OC)c(OC)c1)[O][Sn]([CH2]C)([CH2]C)[O]C(=O)c1cc(OC)c(OC)c(OC)c1"
  assigned.class: "inactive"
- chem.smiles: "O=C1/C(=C\\c2ccccc2)CN(C(=O)c2ccccc2F)C/C1=C\\c1ccccc1"
  assigned.class: "active"
- chem.smiles: "O=C(Nc1ccc(-n2cc(-c3ccncc3)c(-c3ccc(O)c(Cl)c3)n2)cc1)c1ccc(Cl)c(Cl)c1"
  assigned.class: "inactive"
- chem.smiles: "Cc1ccc2c(c1)/C(=N\\N=C/c1cn(C(C)C)c3ccccc13)C(=O)N2"
  assigned.class: "active"
- chem.smiles: "CC[n+]1c(/C=C/c2ccc(N(CCCl)CCCl)cc2)ccc2cc(Br)ccc21"
  assigned.class: "inactive"
- chem.smiles: "c1ccc(COc2ccc(Nc3ncnc4ccc(-c5ccco5)cc34)cc2)cc1"
  assigned.class: "inactive"

###

System: M14 melanoma
Experiment: NCI tumour cell line growth inhibition, 48 h
TGI values for the compounds below.

- compound: "Nc1ncn([C@@H]2C=C(CO)C(O)C2O)c(=O)n1 (stereo not given in full)"
  TGI: "> 100 µM"
- compound: "OCCC#Cc1ccccc1C#Cc1ccccc1"
  TGI: "31.6 µM"
- compound: "COc1cc(-c2cn(-c3ccc(Cl)cc3)c(=O)n2-c2ccccc2)cc(OC)c1OC"
  TGI: "> 100 µM"
- compound: "Cn1cccc1C1CC(=O)N(CCC[Se]C#N)C1=O (stereo not given)"
  TGI: "3.89 µM"
- compound: "CCCNc1c(Cl)cc(Cl)c2[nH]c3ccccc3c(=O)c12"
  TGI: "> 100 µM"
- compound: "C[N+](C)(C)C(Cc1c[nH]c(=S)[nH]1)C(=O)O (stereo not given)"
  TGI: "> 100 µM"
- compound: "S=c1nc(/C=C/c2ccc(Cl)c(Cl)c2)[nH][nH]1"
  TGI: "> 100 µM"
- compound: "COc1cc2c(c(Br)c1N)-c1cc(Br)c(N)cc1C2=O"
  TGI: "> 100 µM"
- compound: "O=[N+]([O-])c1ccc2nc(/C=C(\\O)c3ccccc3)c(/C=C(\\O)c3ccc(Cl)cc3)nc2c1"
  TGI: "> 100 µM"
- compound: "C[CH2][Sn]([CH2]C)([O]C(=O)c1cc(OC)c(OC)c(OC)c1)[O][Sn]([CH2]C)([CH2]C)[O]C(=O)c1cc(OC)c(OC)c(OC)c1"
  TGI: "> 78.9 µM"

###

System: SF-295 CNS
Test: NCI tumour cell line growth inhibition, 48 h
TGI values for the compounds below.

- compound: "COC(=O)C1CCCCCCCCCCC12SCCCS2 (centres undefined)"
  assayed.target: "SF-295 CNS"
  TGI: "39 µM"
- compound: "COc1ccc(C=O)c(N(C)C(=O)C(C)(C)C)c1"
  assayed.target: "SF-295 CNS"
  TGI: "> 100 µM"
- compound: "O=C(O)c1ccccc1/C=C1\\Cc2ccc3c(c2C1=O)CCCC3"
  assayed.target: "SF-295 CNS"
  TGI: "99.5 µM"
- compound: "COc1ccc([N+](=O)[O-])cc1[I+]c1cc([N+](=O)[O-])ccc1OC"
  assayed.target: "SF-295 CNS"
  TGI: "> 100 µM"
- compound: "Fc1cccc(C=NC23CC4CC(CC(C4)C2)C3)c1"
  assayed.target: "SF-295 CNS"
  TGI: "> 100 µM"
- compound: "CCOC(=O)C1=C(O)CSC1=Nc1ccc(N=C2SCC(O)=C2C(=O)OCC)cc1"
  assayed.target: "SF-295 CNS"
  TGI: "63.1 µM"
- compound: "C[CH2][Sn]([CH2]C)([O]C(=O)c1cc(OC)c(OC)c(OC)c1)[O][Sn]([CH2]C)([CH2]C)[O]C(=O)c1cc(OC)c(OC)c(OC)c1"
  assayed.target: "SF-295 CNS"
  TGI: "> 100 µM"
- compound: "COC(=O)C(NC(=O)C12CCC(C)(C(=O)O1)C2(C)C)c1cc(C(C)(C)C)c(O)c(C(C)(C)C)c1 (centres undefined)"
  assayed.target: "SF-295 CNS"
  TGI: "> 100 µM"
- compound: "COC(=O)C1(c2ccc(OC)cc2)NC(c2ccccc2)C2C(=O)N(c3ccc(OC)cc3)C(=O)C21 (centres undefined)"
  assayed.target: "SF-295 CNS"
  TGI: "> 100 µM"
- compound: "Nc1nc(Cl)cc(NCC2(CO)CC(O)C2)n1 (centres undefined)"
  assayed.target: "SF-295 CNS"
  TGI: "> 100 µM"
- compound: "COc1ccc(-n2c(-c3ccccc3)cc(-c3cccs3)c2-c2cccs2)cc1"
  assayed.target: "SF-295 CNS"
  TGI: "> 100 µM"
- compound: "O=C(c1no[n+]([O-])c1C(=O)c1csc2ccccc12)c1csc2ccccc12"
  assayed.target: "SF-295 CNS"
  TGI: "29 µM"
- compound: "c1cc(-c2ccc(Oc3ccc(-c4ccncc4)cc3)cc2)ccn1"
  assayed.target: "SF-295 CNS"
  TGI: "> 100 µM"
- compound: "c1ccc(NC2(c3nnnn3C3CCCCC3)CCNCC2)cc1"
  assayed.target: "SF-295 CNS"
  TGI: "34.6 µM"
- compound: "Brc1ccc(C2(N3CCCCC3)CCCCC2)s1"
  assayed.target: "SF-295 CNS"
  TGI: "> 100 µM"
- compound: "COc1ccc(/C=N/Nc2nc3ccccc3c(=O)n2-c2ccccc2)cc1"
  assayed.target: "SF-295 CNS"
  TGI: "> 100 µM"
- compound: "COC1(CCO)CC=CCC1(CCO)OC (centres undefined)"
  assayed.target: "SF-295 CNS"
  TGI: "> 100 µM"
- compound: "Oc1ccc(-c2nc(-c3ccc(F)cc3)c(-c3ccncc3)[nH]2)cc1"
  assayed.target: "SF-295 CNS"
  TGI: "> 100 µM"
- compound: "CC1OC(OC2C(OC3CCC4(C)C(CCC5(C)C4CC=C4C6CC(C)(C)CCC6(CO)C(O)CC45C)C3(C)C)OC(C(=O)O)C(OC3OC(COC4OC(CO)C(O)C(O)C4O)C(O)C(O)C3O)C2O)C(O)C(O)C1O (centres undefined)"
  assayed.target: "SF-295 CNS"
  TGI: "20.2 µM"
- compound: "NCCCNCCCNc1nc2ccccc2c2[nH]c3ccccc3c12"
  assayed.target: "SF-295 CNS"
  TGI: "1.61 µM"
- compound: "Cn1cc(-c2ccc3c(c2)ncn3-c2ccc(CC(=O)Nc3cc(C(C)(C)C)on3)cc2)cn1"
  assayed.target: "SF-295 CNS"
  TGI: "> 38.8 µM"
- compound: "CC(C)c1cccc(C(C)C)c1NC(=S)Nc1ccccc1"
  assayed.target: "SF-295 CNS"
  TGI: "> 100 µM"
- compound: "CCOC(=O)c1c(-c2ccccc2)[nH]c2ccccc2c1=O"
  assayed.target: "SF-295 CNS"
  TGI: "> 100 µM"
- compound: "COc1ccc(N=C/C=C/C(=C/COC(C)=O)OC(C)=O)cc1"
  assayed.target: "SF-295 CNS"
  TGI: "> 100 µM"
- compound: "COc1cccc2c(=O)c3c(O)c4cc(N(C)C)ccc4c(OC(C)=O)c3oc12"
  assayed.target: "SF-295 CNS"
  TGI: "> 100 µM"
- compound: "CSc1nc2ccccc2c(=O)n1-c1cccc(C)c1"
  assayed.target: "SF-295 CNS"
  TGI: "> 100 µM"
- compound: "c1ccc(CNc2nc(Nc3ccc(-c4nc5ccccc5[nH]4)cc3)c3cn[nH]c3n2)cc1"
  assayed.target: "SF-295 CNS"
  TGI: "3.84 µM"
- compound: "CC1(C)CC[C@]2(C(=O)O)CCC3(C)C(=CCC4[C@@]5(C)CC[C@H](OC6OCC(O)C(O)C6OC6OC(CO)C(O)C(O)C6O)C(C)(C)C5CC[C@]43C)C2C1 (some centres undefined)"
  assayed.target: "SF-295 CNS"
  TGI: "3.42 µM"
- compound: "CC(C)c1cc(C(C)C)c(P2(=O)CC3C(Cl)(Cl)C3(C)C2)c(C(C)C)c1 (centres undefined)"
  assayed.target: "SF-295 CNS"
  TGI: "18.6 µM"
- compound: "COc1ccc(C2=NN(c3ccc(S(N)(=O)=O)cc3)C(c3ccc(Cl)cc3)C2)c(O)c1 (centres undefined)"
  assayed.target: "SF-295 CNS"
  TGI: "14.5 µM"
- compound: "Nc1nccc(C#Cc2cncnc2Nc2ccc(OCc3cccc(F)c3)c(Cl)c2)n1"
  assayed.target: "SF-295 CNS"
  TGI: "> 25 µM"
- compound: "O=C(CN1c2ccccc2Sc2ccccc21)n1cnc2ccccc21"
  assayed.target: "SF-295 CNS"
  TGI: "> 100 µM"
- compound: "CC1(C)OCC(C2OC(On3nnc4ccc(Cl)cc43)C3OC(C)(C)OC23)O1 (centres undefined)"
  assayed.target: "SF-295 CNS"
  TGI: "> 100 µM"
- compound: "O=C1C2=Cc3ccccc3CCN2c2ccc([N+](=O)[O-])cc21"
  assayed.target: "SF-295 CNS"
  TGI: "> 100 µM"
- compound: "C=C1C(=O)OC2C3C(=C)[C@@H](OC(C)=O)CC3C(C)=CC(OC(=O)C(C)(O)C(C)OC(C)=O)[C@@H]12 (some centres undefined)"
  assayed.target: "SF-295 CNS"
  TGI: "> 100 µM"
- compound: "Cc1nc(N=C(N)N)nc2ccc3ccccc3c12"
  assayed.target: "SF-295 CNS"
  TGI: "4.43 µM"
- compound: "C=C1CCC2C3(C)COC(c4cccc(Cl)c4)OC3CCC2(C)C1/C=C/C1=CCOC1=O (centres undefined)"
  assayed.target: "SF-295 CNS"
  TGI: "> 100 µM"
- compound: "CC(=O)NC1C(OCc2ccccc2)OC(CO)C(O)C1OCC(=O)NC(C)C(=O)NC(CCC(=O)Nc1ccc2c(c1)CN1C(=O)c3ccccc3C1=N2)C(N)=O (centres undefined)"
  assayed.target: "SF-295 CNS"
  TGI: "> 100 µM"
- compound: "CCN1N=CSC12C(=O)N(c1ccccc1)C(=O)N2c1ccccc1 (centres undefined)"
  assayed.target: "SF-295 CNS"
  TGI: "> 100 µM"
